- Test system: Bacillus subtilis
- Assay notes: Antimicrobial activity against Bacillus subtilis ATCC 6051 after 24 hrs by spectrophotometric method
- Assay type: functional, organism-based
The source made the active and inactive calls. No cut-off for these calls is given here.
Metric: Activity

chemical_string=CC[C@@H](C)[C@H](NC(=O)[C@H](CCC(N)=O)NC(=O)C(C)(C)NC(C)=O)C(=O)N[C@H](C(=O)NC(C)(C)C(=O)N1CCC[C@H]1C(=O)N[C@H](C(=O)N[C@@H](CC(C)C)C(=O)NC(C)(C)C(=O)N1CCC[C@H]1C(=O)N[C@H](CO)CC(C)C)[C@@H](C)CC)C(C)C experimental_system="Bacillus subtilis" measured_value=inactive
chemical_string=CC[C@H](C)[C@H](NC(=O)[C@@H]1CCCN1C(=O)C(C)(C)NC(=O)[C@@H](NC(=O)[C@@H](NC(=O)[C@H](CCC(N)=O)NC(=O)[C@@](C)(CC)NC(C)=O)C(C)C)C(C)C)C(=O)N[C@@H](CC(C)C)C(=O)NC(C)(C)C(=O)N1CCC[C@H]1C(=O)N[C@H](CO)C(C)C experimental_system="Bacillus subtilis" measured_value=inactive
chemical_string=CC[C@@H](C)[C@H](NC(=O)[C@H](CCC(N)=O)NC(=O)C(C)(C)NC(C)=O)C(=O)N[C@H](C(=O)NC(C)(C)C(=O)N1CCC[C@H]1C(=O)N[C@H](C(=O)N[C@@H](CC(C)C)C(=O)NC(C)(C)C(=O)N1CCC[C@H]1C(=O)N[C@H](CO)C(C)C)[C@@H](C)CC)C(C)C experimental_system="Bacillus subtilis" measured_value=inactive
chemical_string=CC[C@@H](C)[C@H](NC(=O)[C@H](CCC(N)=O)NC(=O)[C@@](C)(CC)NC(C)=O)C(=O)N[C@H](C(=O)NC(C)(C)C(=O)N1CCC[C@H]1C(=O)N[C@H](C(=O)N[C@@H](CC(C)C)C(=O)NC(C)(C)C(=O)N1CCC[C@H]1C(=O)N[C@H](CO)C(C)C)[C@@H](C)CC)C(C)C experimental_system="Bacillus subtilis" measured_value=inactive
chemical_string=CC[C@@H](C)[C@H](NC(=O)[C@H](CCC(N)=O)NC(=O)[C@@](C)(CC)NC(C)=O)C(=O)N[C@H](C(=O)NC(C)(C)C(=O)N1CCC[C@H]1C(=O)N[C@H](C(=O)N[C@@H](CC(C)C)C(=O)NC(C)(C)C(=O)N1CCC[C@H]1C(=O)N[C@H](CO)CC(C)C)[C@@H](C)CC)C(C)C experimental_system="Bacillus subtilis" measured_value=inactive

###

- System: SW-620
- Assay notes: Cytotoxicity against human SW620 cells assessed as inhibition of cell growth after 48 hrs by MTT assay
- Assay type: cell-based
- Conditions used: SW-620, 48 h
Entries and their IC50 values follow.
Metric: IC50 (µM)

chemical_string=CC[C@@H](C)[C@H](NC(=O)[C@H](CCC(N)=O)NC(=O)[C@@](C)(CC)NC(C)=O)C(=O)N[C@H](C(=O)NC(C)(C)C(=O)N1CCC[C@H]1C(=O)N[C@H](C(=O)N[C@@H](CC(C)C)C(=O)NC(C)(C)C(=O)N1CCC[C@H]1C(=O)N[C@H](CO)CC(C)C)[C@@H](C)CC)C(C)C metric=IC50 unit_name=µM value_prefix== measured_value=12.8
chemical_string=CC[C@@H](C)[C@H](NC(=O)[C@H](CCC(N)=O)NC(=O)[C@@](C)(CC)NC(C)=O)C(=O)N[C@H](C(=O)NC(C)(C)C(=O)N1CCC[C@H]1C(=O)N[C@H](C(=O)N[C@@H](CC(C)C)C(=O)NC(C)(C)C(=O)N1CCC[C@H]1C(=O)N[C@H](CO)C(C)C)[C@@H](C)CC)C(C)C metric=IC50 unit_name=µM value_prefix== measured_value=18.9
chemical_string=CC[C@H](C)[C@H](NC(=O)[C@@H]1CCCN1C(=O)C(C)(C)NC(=O)[C@@H](NC(=O)[C@@H](NC(=O)[C@H](CCC(N)=O)NC(=O)[C@@](C)(CC)NC(C)=O)C(C)C)C(C)C)C(=O)N[C@@H](CC(C)C)C(=O)NC(C)(C)C(=O)N1CCC[C@H]1C(=O)N[C@H](CO)C(C)C metric=IC50 unit_name=µM value_prefix== measured_value=27.5
chemical_string=CC[C@@H](C)[C@H](NC(=O)[C@H](CCC(N)=O)NC(=O)C(C)(C)NC(C)=O)C(=O)N[C@H](C(=O)NC(C)(C)C(=O)N1CCC[C@H]1C(=O)N[C@H](C(=O)N[C@@H](CC(C)C)C(=O)NC(C)(C)C(=O)N1CCC[C@H]1C(=O)N[C@H](CO)C(C)C)[C@@H](C)CC)C(C)C metric=IC50 unit_name=µM value_prefix=> measured_value=30
chemical_string=CC[C@@H](C)[C@H](NC(=O)[C@H](CCC(N)=O)NC(=O)C(C)(C)NC(C)=O)C(=O)N[C@H](C(=O)NC(C)(C)C(=O)N1CCC[C@H]1C(=O)N[C@H](C(=O)N[C@@H](CC(C)C)C(=O)NC(C)(C)C(=O)N1CCC[C@H]1C(=O)N[C@H](CO)CC(C)C)[C@@H](C)CC)C(C)C metric=IC50 unit_name=µM value_prefix=> measured_value=30
